Would you mind telling me the reported Activity of each entry?
Tested on: Human immunodeficiency virus 1
protocolNotes: Binding affinity to HLT-tagged HIV-1 Rev measured after overnight incubation by chemiluminescence analysis relative to IN 174-188
Parameters: concentration or dose not given beside the values
Peptide text beside a SMILES is read from it.
Provide only the numeric value, understood in %.

Record summary for CC[C@H](C)[C@H](NC(=O)[C@H](Cc1ccccc1)NC(=O)[C@@H](NC(=O)[C@H](C)NC(=O)[C@H](CCSC)NC(=O)[C@@H](N)CCC(N)=O)C(C)C)C(=O)N[C@@H](Cc1cnc[nH]1)C(=O)N[C@@H](CC(N)=O)C(=O)N[C@@H](Cc1ccccc1)C(=O)N[C@@H](CCCCN)C(=O)N[C@@H](CCCNC(=N)N)C(=O)N[C@@H](CCCCN)C(=O)O (H-QMAVFIHNFKRK-OH) : reported Activity = 135

Record summary for "CC[C@H](C)[C@H](NC(=O)[C@H](Cc1ccccc1)NC(=O)[C@H](NC(=O)[C@H](C)NC(=O)[C@H](CCSC)NC(=O)[C@H](CCC(N)=O)NC(=O)[C@@H](NC(=O)[C@H](C)NC(=O)[C@@H](N)[C@@H](C)O)C(C)C)C(C)C)C(=O)N[C@@H](Cc1cnc[nH]1)C(=O)N[C@@H](CC(N)=O)C(=O)N[C@@H](Cc1ccccc1)C(=O)N[C@@H](CCCCN)C(=O)N[C@@H](CCCNC(=N)N)C(=O)N[C@@H](CCCCN)C(=O)O" : reported Activity = 152

Record summary for "CC[C@H](C)[C@H](NC(=O)[C@H](Cc1ccccc1)NC(=O)[C@@H](NC(=O)[C@H](C)NC(=O)[C@H](CCSC)NC(=O)[C@H](CCC(N)=O)NC(=O)[C@H](NC(=O)[C@H](C)NC(=O)[C@@H](N)[C@@H](C)O)C(C)C)C(C)C)C(=O)N[C@@H](Cc1cnc[nH]1)C(=O)N[C@@H](CC(N)=O)C(=O)N[C@@H](Cc1ccccc1)C(=O)N[C@@H](CCCCN)C(=O)N[C@@H](CCCNC(=N)N)C(=O)N[C@@H](CCCCN)C(=O)O" : reported Activity = 226

---

systemUnderTest: UniProtKB Q7ZJM1
Sequence (Q7ZJM1 as listed by the source): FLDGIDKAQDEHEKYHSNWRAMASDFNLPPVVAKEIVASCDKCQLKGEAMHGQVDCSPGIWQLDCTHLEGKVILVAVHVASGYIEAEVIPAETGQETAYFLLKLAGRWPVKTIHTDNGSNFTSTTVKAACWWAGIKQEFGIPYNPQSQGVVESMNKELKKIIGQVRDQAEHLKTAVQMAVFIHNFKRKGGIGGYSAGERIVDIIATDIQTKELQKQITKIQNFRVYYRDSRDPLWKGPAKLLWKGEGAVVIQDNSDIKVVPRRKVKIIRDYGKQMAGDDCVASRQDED
protocolNotes: Binding affinity to HIV-1 integrase measured after overnight incubation by chemiluminescence analysis relative to IN 174-188
Parameters: concentration or dose not given beside the values
Peptide text beside a SMILES is read from it.
assayMetric: Activity (%)
Provide only the numeric value, understood in %.

Record summary for "CC[C@H](C)[C@H](NC(=O)[C@H](Cc1ccccc1)NC(=O)[C@@H](NC(=O)[C@H](C)NC(=O)[C@H](CCSC)NC(=O)[C@@H](CCC(N)=O)NC(=O)[C@@H](NC(=O)[C@H](C)NC(=O)[C@@H](N)[C@@H](C)O)C(C)C)C(C)C)C(=O)N[C@@H](Cc1cnc[nH]1)C(=O)N[C@@H](CC(N)=O)C(=O)N[C@@H](Cc1ccccc1)C(=O)N[C@@H](CCCCN)C(=O)N[C@@H](CCCNC(=N)N)C(=O)N[C@@H](CCCCN)C(=O)O" : reported Activity = 154

Record summary for CC[C@H](C)[C@H](NC(=O)[C@H](Cc1ccccc1)NC(=O)[C@@H](NC(=O)[C@H](C)NC(=O)[C@H](CCSC)NC(=O)[C@H](CCC(N)=O)NC(=O)[C@@H](NC(=O)[C@H](C)NC(=O)[C@@H](N)[C@@H](C)O)C(C)C)C(C)C)C(=O)N[C@@H](Cc1cnc[nH]1)C(=O)N[C@@H](CC(N)=O)C(=O)N[C@@H](Cc1ccccc1)C(=O)N[C@@H](CCCCN)C(=O)N[C@@H](CCCNC(=N)N)C(=O)O (H-TAVQMAVFIHNFKR-OH) : reported Activity = 87

Record summary for "CC[C@H](C)[C@H](NC(=O)[C@H](Cc1ccccc1)NC(=O)[C@@H](NC(=O)[C@H](C)NC(=O)[C@H](CCSC)NC(=O)[C@H](CCC(N)=O)NC(=O)[C@@H](NC(=O)[C@H](C)NC(=O)[C@H](N)[C@@H](C)O)C(C)C)C(C)C)C(=O)N[C@@H](Cc1cnc[nH]1)C(=O)N[C@@H](CC(N)=O)C(=O)N[C@@H](Cc1ccccc1)C(=O)N[C@@H](CCCCN)C(=O)N[C@@H](CCCNC(=N)N)C(=O)N[C@@H](CCCCN)C(=O)O" : reported Activity = 73

---

Would you mind telling me the reported Activity of each entry?
Test system: Human immunodeficiency virus 1
protocolNotes: Binding affinity to HLT-tagged HIV-1 Rev measured after overnight incubation by chemiluminescence analysis relative to IN 118-128
Design: concentration or dose not given beside the values
Square brackets hold non-standard residues; d marks the D form. Peptide text beside a SMILES is read from it. NMeV = CN[C@H](C(=O)O)C(C)C
Provide only the numeric value, understood in %.

The measured Activity that CC(C)[C@H](NC(=O)[C@@H](NC(=O)[C@@H](NC(=O)[C@H](CO)NC(=O)[C@@H](NC(=O)[C@H](Cc1ccccc1)NC(=O)[C@H](CC(N)=O)NC(=O)[C@H](C)NC(=O)CN)[C@@H](C)O)[C@@H](C)O)[C@@H](C)O)C(=O)N[C@@H](CCCCN)C(=O)N[C@@H](C)C(=O)O (H-GANFTSTTVKA-OH) showed for Human immunodeficiency virus 1 is 146

The measured Activity that CC(C)[C@H](NC(=O)[C@@H](NC(=O)[C@@H](NC(=O)[C@H](CO)NC(=O)[C@@H](NC(=O)[C@H](Cc1ccccc1)NC(=O)[C@H](C)NC(=O)[C@H](CO)NC(=O)CN)[C@@H](C)O)[C@@H](C)O)[C@@H](C)O)C(=O)N[C@@H](CCCCN)C(=O)N[C@@H](C)C(=O)O (H-GSAFTSTTVKA-OH) showed for Human immunodeficiency virus 1 is 151

The measured Activity that "CC(C)[C@H](NC(=O)[C@@H](NC(=O)[C@@H](NC(=O)[C@H](CO)NC(=O)[C@H](NC(=O)[C@H](Cc1ccccc1)NC(=O)[C@H](CC(N)=O)NC(=O)[C@H](CO)NC(=O)CN)[C@@H](C)O)[C@@H](C)O)[C@@H](C)O)C(=O)N[C@@H](CCCCN)C(=O)N[C@@H](C)C(=O)O" showed for Human immunodeficiency virus 1 is 52

The measured Activity that "CC(C)[C@H](NC(=O)[C@@H](NC(=O)[C@@H](NC(=O)[C@@H](CO)NC(=O)[C@@H](NC(=O)[C@H](Cc1ccccc1)NC(=O)[C@H](CC(N)=O)NC(=O)[C@H](CO)NC(=O)CN)[C@@H](C)O)[C@@H](C)O)[C@@H](C)O)C(=O)N[C@@H](CCCCN)C(=O)N[C@@H](C)C(=O)O" showed for Human immunodeficiency virus 1 is 124

The measured Activity that CC(C)[C@@H](C(=O)N[C@@H](CCCCN)C(=O)N[C@@H](C)C(=O)O)N(C)C(=O)[C@@H](NC(=O)[C@@H](NC(=O)[C@H](CO)NC(=O)[C@@H](NC(=O)[C@H](Cc1ccccc1)NC(=O)[C@H](CC(N)=O)NC(=O)[C@H](CO)NC(=O)CN)[C@@H](C)O)[C@@H](C)O)[C@@H](C)O (H-GSNFTSTT[NMeV]KA-OH) showed for Human immunodeficiency virus 1 is 215

The measured Activity that "CC(C)[C@H](NC(=O)[C@@H](NC(=O)[C@@H](NC(=O)[C@H](CO)NC(=O)[C@@H](NC(=O)[C@H](Cc1ccccc1)NC(=O)[C@@H](CC(N)=O)NC(=O)[C@H](CO)NC(=O)CN)[C@@H](C)O)[C@@H](C)O)[C@@H](C)O)C(=O)N[C@@H](CCCCN)C(=O)N[C@@H](C)C(=O)O" showed for Human immunodeficiency virus 1 is 144

The measured Activity that C[C@@H](O)[C@H](NC(=O)[C@H](Cc1ccccc1)NC(=O)[C@H](CC(N)=O)NC(=O)[C@H](CO)NC(=O)CN)C(=O)N[C@@H](CO)C(=O)O (H-GSNFTS-OH) showed for Human immunodeficiency virus 1 is 0

---

Test system: Human immunodeficiency virus 1
protocolNotes: Binding affinity to HLT-tagged HIV-1 Rev measured after overnight incubation by chemiluminescence analysis relative to IN 174-188
Parameters: concentration or dose not given beside the values
Peptide text beside a SMILES is read from it.
assayMetric: Activity (%)
Provide only the numeric value, understood in %.

Record summary for CC[C@H](C)[C@H](NC(=O)[C@H](Cc1ccccc1)NC(=O)[C@@H](NC(=O)[C@H](C)NC(=O)[C@H](CCSC)NC(=O)[C@H](CCC(N)=O)NC(=O)[C@@H](NC(=O)[C@H](C)NC(=O)[C@@H](N)[C@@H](C)O)C(C)C)C(C)C)C(=O)N[C@@H](C)C(=O)N[C@@H](CC(N)=O)C(=O)N[C@@H](Cc1ccccc1)C(=O)N[C@@H](CCCCN)C(=O)N[C@@H](CCCNC(=N)N)C(=O)N[C@@H](CCCCN)C(=O)O (H-TAVQMAVFIANFKRK-OH) : reported Activity = 121

Record summary for "CC[C@H](C)[C@H](NC(=O)[C@H](Cc1ccccc1)NC(=O)[C@@H](NC(=O)[C@H](C)NC(=O)[C@@H](CCSC)NC(=O)[C@H](CCC(N)=O)NC(=O)[C@@H](NC(=O)[C@H](C)NC(=O)[C@@H](N)[C@@H](C)O)C(C)C)C(C)C)C(=O)N[C@@H](Cc1cnc[nH]1)C(=O)N[C@@H](CC(N)=O)C(=O)N[C@@H](Cc1ccccc1)C(=O)N[C@@H](CCCCN)C(=O)N[C@@H](CCCNC(=N)N)C(=O)N[C@@H](CCCCN)C(=O)O" : reported Activity = 196

Record summary for CC[C@H](C)[C@H](NC(=O)[C@@H](N)Cc1ccccc1)C(=O)N[C@@H](Cc1cnc[nH]1)C(=O)N[C@@H](CC(N)=O)C(=O)N[C@@H](Cc1ccccc1)C(=O)N[C@@H](CCCCN)C(=O)N[C@@H](CCCNC(=N)N)C(=O)N[C@@H](CCCCN)C(=O)O (H-FIHNFKRK-OH) : reported Activity = 69
